Form field: Maximum mean fluorescence intensity (one value per entry).
target_under_test: T1, human CD19 on CHO-K1-human CD19 cells (human, UniProt P15391 20-556)
T1 construct: whole, on cells; also called CHO-K1-human CD19-2C8
T1 sequence (looked up): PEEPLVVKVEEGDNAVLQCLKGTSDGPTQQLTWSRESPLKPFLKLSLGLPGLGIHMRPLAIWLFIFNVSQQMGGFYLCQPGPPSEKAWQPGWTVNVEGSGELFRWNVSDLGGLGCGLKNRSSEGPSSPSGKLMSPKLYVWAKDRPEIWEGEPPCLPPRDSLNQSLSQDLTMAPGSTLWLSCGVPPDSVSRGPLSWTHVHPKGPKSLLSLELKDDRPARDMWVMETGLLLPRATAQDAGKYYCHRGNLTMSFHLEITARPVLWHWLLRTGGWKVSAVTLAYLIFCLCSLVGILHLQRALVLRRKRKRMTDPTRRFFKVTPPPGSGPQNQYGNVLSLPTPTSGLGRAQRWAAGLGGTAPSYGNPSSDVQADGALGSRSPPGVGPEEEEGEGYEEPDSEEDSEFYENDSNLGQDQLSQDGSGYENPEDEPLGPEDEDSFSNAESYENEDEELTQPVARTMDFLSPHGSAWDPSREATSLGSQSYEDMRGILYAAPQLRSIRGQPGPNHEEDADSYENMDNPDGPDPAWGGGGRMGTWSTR
experimental_protocol: FACS on CHO-K1-human CD19 cells
Protocol: The desired cells were scale-up cultured in a T-75 cell culture flask to the logarithmic growth phase. For the adherent cell CHO-K1, the medium was aspirated, the cells were washed 2 times with a PBS buffer, and then digested with trypsin. […] Data analysis was performed by software (FlowJo) to obtain the mean fluorescence intensity (MFI) of the cells. […]

Some solved entries appear below for comparison.
F4.276.12 (antibody, human IgG1, V domains shown, human-murine chimeric antibody, human IgG1) VH: EIQLQQSGPELVKPGASVKVSCKASGYAFSAYNMYWVKQSHGKSLEWIGYIDPYNGGTNYNQKFKGKATLTVDKSSSTAYMHLNSLTSEDSAVYYCARDGYEVTYWGQGTLVTVSA VL: QIVLTQSPALMSASLGEEITLTCSASSSVTYMHWSQQKSGTSPRLLIYSTSNLASGVPSRFSGSGSGTFYSLTISSVEAEDAADYYCHQWSSYPWTFGGGTKLEIK = 50200
F3.81.2 (antibody, human IgG1, V domains shown, human-murine chimeric antibody, human IgG1) VH: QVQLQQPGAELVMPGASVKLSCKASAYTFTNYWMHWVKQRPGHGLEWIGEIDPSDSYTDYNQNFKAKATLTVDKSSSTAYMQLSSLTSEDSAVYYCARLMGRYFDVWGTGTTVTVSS VL: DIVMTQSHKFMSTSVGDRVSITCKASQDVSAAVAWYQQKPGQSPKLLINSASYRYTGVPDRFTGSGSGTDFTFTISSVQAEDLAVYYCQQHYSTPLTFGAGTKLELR = 59600

**Query** Which Maximum mean fluorescence intensity is listed for F4.35.5 (antibody, human IgG1, V domains shown, human-murine chimeric antibody, human IgG1) VH: EIQLQQSGPELVKPGASVKVSCKASGYAFTSYNMYWVKQSHGKSLEWIGYIDPYNGDTRYNQKFKGKATLTVDKSSSTAYMHLNSLTSEDSAVYYCTRSGTGRDYWGQGTTLTVSS VL: QIVLTQSPAIMSASPGEKVTMTCSASSSISYMFWFQQKPGSSPRLLIYDTSSLASGVPVRFSGSGSGTSYTLTISRMEAEDAATYYCQQWSNYPYTFGGGTKLEMK ?
**Result** 50000

Just for reference, patent US20250042994A1 is where these values come from.
